# testedTarget: human adenosine A2A receptor (Homo sapiens (Human))
# Sequence (P29274 whole entry): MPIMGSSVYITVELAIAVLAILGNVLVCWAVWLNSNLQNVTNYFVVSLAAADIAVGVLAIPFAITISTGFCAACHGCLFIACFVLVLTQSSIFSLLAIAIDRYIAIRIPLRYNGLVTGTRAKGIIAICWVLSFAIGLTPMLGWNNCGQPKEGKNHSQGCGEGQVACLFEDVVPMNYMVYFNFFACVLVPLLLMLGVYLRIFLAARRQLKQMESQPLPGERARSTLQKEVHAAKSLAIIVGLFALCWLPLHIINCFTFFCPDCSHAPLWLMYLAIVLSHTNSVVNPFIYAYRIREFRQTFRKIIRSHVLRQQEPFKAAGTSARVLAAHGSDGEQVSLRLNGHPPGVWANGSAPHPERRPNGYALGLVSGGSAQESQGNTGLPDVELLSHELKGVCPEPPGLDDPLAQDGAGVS
# testProtocol: Adenosine receptor inhibition binding assay, [3H]ZM241385, HEK293 A2A receptor membranes
# conditionDescription: 1 nM [3H]ZM241385, HEK293-hA2A membranes, 25° C., 1 h; Ki from IC50 by Cheng-Prusoff; read-out: A2A pKi (converted)
propertyName: Ki (pM)
Numbers only, in pM.

In the examples that follow, each entry is paired with its recorded Ki.
| compound | propertyName | dataValue |
| --- | --- | --- |
| [2H]c1c([2H])c([2H])c(-c2nc(N)n3c(=O)n(C[C@H]4CCCO4)nc3c2-c2cc(CO)nc(OC)c2)c([2H])c1[2H] [Example 2-36] | Ki | 794 |
| [2H]c1c([2H])c([2H])c(-c2nc(N)n3c(=O)n(Cc4cocn4)nc3c2-c2cc(C)nc(CO)c2)c([2H])c1[2H] [Example 1-49] | Ki | 1580 |
| [2H]c1c([2H])c([2H])c(-c2nc(N)n3c(=O)n(Cc4nccn4C)nc3c2-c2cc(C)nc(CO)c2)c([2H])c1[2H] [Example 1-48] | Ki | 1260 |
| [2H]c1c([2H])c([2H])c(-c2nc(N)n3c(=O)n(C[C@H]4CCCO4)nc3c2-c2cc(C)nc(CO)c2)c([2H])c1[2H] [Example 2-30] | Ki | 1000 |
| [2H]c1c([2H])c([2H])c(-c2nc(N)n3c(=O)n(Cc4nccn4C)nc3c2-c2cc(CO)nc(OC)c2)c([2H])c1[2H] [Example 1-62] | Ki | 251 |
| Cc1cc(-c2c(-c3ccccc3)nc(N)n3c(=O)n(C[C@H]4CC(F)(F)CN4C)nc23)cc(C)n1 [Example 2-14] | Ki | 3160 |

Please go through the list and note Ki for each compound.
1. [2H]c1c([2H])c([2H])c(-c2nc(N)n3c(=O)n(C[C@H]4CCCO4)nc3c2-c2cc(Cl)nc(CO)c2)c([2H])c1[2H] [Example 2-33]
2. [2H]c1c([2H])c([2H])c(-c2nc(N)n3c(=O)n(Cc4ncoc4C)nc3c2-c2cc(C)nc(CO)c2)c([2H])c1[2H] [Example 1-47]

1. 316
2. 316
